pIC50: −log10 of the molar value.
Here's a roundup of pIC50 values tested on UniProt G1SFD9, taken from various published works.
quantity.measured: pIC50

Below: 5 compounds and their reported pIC50.
| compound | target.of.assay | pIC50 |
| --- | --- | --- |
| CCCNC(=O)Nc1c(OCCCn2cnc(-c3ccccc3)c2)cccc1N(C)C | UniProt G1SFD9 | 6.18 |
| CCCCCCCCCCCCn1nnnc1NC(=O)Nc1c(C(C)C)cccc1C(C)C | UniProt G1SFD9 | 6.68 |
| CCCCCCCCCCCCCCCC(=O)Nc1c(C)cc(C)c2c1OC(C)(C)C2 | UniProt G1SFD9 | 7.59 |
| CCCCCCCCCCCCN1NN=C(CNC(=O)Nc2c(C(C)C)cccc2C(C)C)N1 | UniProt G1SFD9 | 7.92 |
| CC(C)c1cccc(C(C)C)c1NC(=O)NCC1CCCc2ccccc21 (stereo not given) | UniProt G1SFD9 | 7.44 |

1. Cc1cc(C)c(NC(=O)N(Cc2ccc(-c3cccs3)cc2)C2CCCCCC2)c(C)c1
2. Cc1ccc(NC(=O)Nc2c(C(C)C)cccc2C(C)C)cc1
Recorded pIC50 values differ for 1 and 2 ; which one is higher? # reply format: chosen label 1
